Attribution: patent US6914045B2

# key: entry, value: MIC Streptococcus pyogenes (GC 4563)
Test system: Streptococcus sp.
Assay: in vitro antibacterial evaluation, MIC by broth dilution
Format: cell-based
Conditions: Streptococcus pyogenes (GC 4563); broth dilution, 18 hours at 35° C.
Number only, in µg/mL; omit the unit.

Consider the worked cases shown below.
N=C1NCC(C(O)C2NC(=O)C(Cc3ccc(OC4OC(CO)C(OC5OC6COC7(OC6C6OC8(OC56)C5CC6CC(C5)CC8C6)C5CC6CC(C5)CC7C6)C(O)C4O)cc3)NC(=O)C(CC3CCCCC3)NC(=O)CNC(=O)C(CO)NC(=O)C(C(O)C3CNC(=N)N3C3OC(CO)C(O)C(O)C3O)NC2=O)N1 (stereo not shown) [Example 106b] :: 0.5
COc1cc(C2OCC3OC(OC4C(CO)OC(Oc5ccc(CC6NC(=O)C(C(C)c7ccccc7)NC(=O)CNC(=O)C(CO)NC(=O)C(C(O)C7CNC(=N)N7C7OC(CO)C(O)C(O)C7O)NC(=O)C(C(O)C7CNC(=N)N7)NC6=O)cc5)C(O)C4O)C(O)C(O)C3O2)ccc1[N+](=O)[O-] (stereo not shown) :: 0.25
CC(c1ccccc1)C1NC(=O)CNC(=O)C(CO)NC(=O)C(C(O)C2CNC(=N)N2C2OC(CO)C(O)C(O)C2O)NC(=O)C(C(O)C2CNC(=N)N2)NC(=O)C(Cc2ccc(OC3OC(CO)C(OC4OC5COC(C6CC=CCC6)OC5C(O)C4O)C(O)C3O)cc2)NC1=O (stereo not shown) :: 0.25
CC(C)=CCCC(C)C1OCC2OC(OC3C(CO)OC(Oc4ccc(CC5NC(=O)C(C(C)c6ccccc6)NC(=O)CNC(=O)C(CO)NC(=O)C(C(O)C6CNC(=N)N6C6OC(CO)C(O)C(O)C6O)NC(=O)C(C(O)C6CNC(=N)N6)NC5=O)cc4)C(O)C3O)C(O)C(O)C2O1 (stereo not shown) :: 0.5

Turning to the following molecule.
Fill blank: measured MIC Streptococcus pyogenes (GC 4563) of the molecule CC(=O)n1cc(C2OCC3OC(OC4C(CO)OC(Oc5ccc(CC6NC(=O)C(C(C)c7ccccc7)NC(=O)CNC(=O)C(CO)NC(=O)C(C(O)C7CNC(=N)N7C7OC(CO)C(O)C(O)C7O)NC(=O)C(C(O)C7CNC(=N)N7)NC6=O)cc5)C(O)C4O)C(O)C(O)C3O2)c2ccccc21 (stereo not shown) is ____.
1

====

# key: entry, value: MIC Staphylococcus aureus (GC 4545)
Tested on: Staphylococcus sp.
Assay: in vitro antibacterial evaluation, MIC by broth dilution
Assay type: cell-based
Conditions: strain GC 4545; broth dilution, 18 hours at 35° C.
Numbered stars: 1 amine (or outer) side, 2 acyl side, 3 side chain; on linkers, the order of the positions; unused ones are H or OH. Square brackets hold non-standard residues; d marks the D form. Peptide text beside a SMILES is read from it. * marks the point of attachment. ξ: configuration not given here. X1 = N=C1NCC(C(O)C(N[*:1])C(=O)[*:2])N1C1OC(CO)C(O)C(O)C1O; ξEnduracididine(βξ-OH,4'ξ) = N=C1NCC(C(O)C(N)C(=O)O)N1; X2 = OCC1OC(OC2C(CO)OC(*)C(O)C2O)C(O)C(O)C1O; Diphenylacetyl = O=C(C(c1ccccc1)c1ccccc1)*; ξPhe(βξ-Me) = CC(c1ccccc1)C(N)C(=O)O

Consider the worked cases shown below.
CC(c1ccccc1)C1NC(=O)CNC(=O)C(CO)NC(=O)C(C(O)C2CNC(=N)N2C2OC(CO)C(O)C(O)C2O)NC(=O)C(C(O)C2CNC(=N)N2)NC(=O)C(Cc2ccc(OC3OC(CO)C(OC4OC5COC(c6cccc(Oc7cccc(C(F)(F)F)c7)c6)OC5C(O)C4O)C(O)C3O)cc2)NC1=O (centres unmarked) :: 32 µg/mL
Cc1ccc(OC(=O)Nc2cc(CC3NC(=O)C(C(C)c4ccccc4)NC(=O)CNC(=O)C(CO)NC(=O)C(C(O)C4CNC(=N)N4C4OC(CO)C(O)C(O)C4O)NC(=O)C(C(O)C4CNC(=N)N4)NC3=O)ccc2O)cc1 (centres unmarked) :: >128 µg/mL
CC(C)=CCN1CC(C(O)C2NC(=O)C(C(O)C3CNC(=N)N3)NC(=O)C(Cc3ccc(OC4OC(CO)C(OC5OC6COC7(OC6C(O)C5O)C5CC6CC(C5)CC7C6)C(O)C4O)cc3)NC(=O)C(C(C)c3ccccc3)NC(=O)CNC(=O)C(CO)NC2=O)N(C2OC(CO)C(O)C(O)C2O)C1=N (centres unmarked) :: 4 µg/mL
CC(c1ccccc1)C1NC(=O)CNC(=O)C(CO)NC(=O)C(C(O)C2CNC(=N)N2C2OC(CO)C(O)C(O)C2O)NC(=O)C(C(O)C2CNC(=N)N2)NC(=O)C(Cc2ccc3oc(-c4ccccc4OC4OC(CO)C(O)C(O)C4O)nc3c2)NC1=O (centres unmarked) :: >128 µg/mL
CC(c1ccccc1)C1NC(=O)CNC(=O)C(CO)NC(=O)C(C(O)C2CN(CCCCCCCCCCC(=O)O)C(=N)N2C2OC(CO)C(O)C(O)C2O)NC(=O)C(C(O)C2CNC(=N)N2)NC(=O)C(Cc2ccc(OC3OC(CO)C(OC4OC(CO)C(O)C(O)C4O)C(O)C3O)cc2)NC1=O (centres unmarked) :: >128 µg/mL
CC(c1ccccc1)C1NC(=O)CNC(=O)C(CO)NC(=O)C(C(O)C2CNC(=N)N2C2OC(CO)C(O)C(O)C2O)NC(=O)C(C(O)C2CNC(=N)N2)NC(=O)C(Cc2ccc3oc(C=C(c4ccccc4)c4ccccc4)nc3c2)NC1=O (centres unmarked) :: 16 µg/mL
CC(c1ccccc1)C1NC(=O)CNC(=O)C(CO)NC(=O)C(C(O)C2CNC(=N)N2C2OC(CO)C(O)C(O)C2O)NC(=O)C(C(O)C2CNC(=N)N2)NC(=O)C(Cc2ccc(OC3OC(CO)C(OC4OC5COC(C)(c6ccc(F)cc6)OC5C(O)C4O)C(O)C3O)cc2)NC1=O (centres unmarked) :: 1 µg/mL
CC(c1ccccc1)C1NC(=O)CNC(=O)C(CO)NC(=O)C(C(O)C2CNC(=N)N2C2OC(CO)C(O)C(O)C2O)NC(=O)C(C(O)C2CNC(=N)N2)NC(=O)C(Cc2ccc(OC3OC(CO)C(OC4OC5COC(Cc6ccccc6)OC5C(O)C4O)C(O)C3O)cc2)NC1=O (centres unmarked) :: 0.5 to 1 µg/mL

Fill blank: measured MIC Staphylococcus aureus (GC 4545) of the molecule CC(c1ccccc1)C1NC(=O)CNC(=O)C(COC(=O)C(c2ccccc2)c2ccccc2)NC(=O)C(C(O)C2CNC(=N)N2C2OC(CO)C(O)C(O)C2O)NC(=O)C(C(O)C2CNC(=N)N2)NC(=O)C(Cc2ccc(OC3OC(CO)C(OC4OC(CO)C(O)C(O)C4O)C(O)C3O)cc2)NC1=O (stereo not drawn) [Example 96a] (cyclo(G[ξPhe(βξ-Me)]Y(X2)[ξEnduracididine(βξ-OH,4'ξ)][X1]S(Diphenylacetyl)); configuration not given here) is ____.
>128 µg/mL

Fill blank: measured MIC Staphylococcus aureus (GC 4545) of the molecule Cc1ccc(Oc2cccc(C3OCC4OC(OC5C(CO)OC(Oc6ccc(CC7NC(=O)C(C(C)c8ccccc8)NC(=O)CNC(=O)C(CO)NC(=O)C(C(O)C8CNC(=N)N8C8OC(CO)C(O)C(O)C8O)NC(=O)C(C(O)C8CNC(=N)N8)NC7=O)cc6I)C(O)C5O)C(O)C(O)C4O3)c2)cc1 (centres unmarked) is ____.
32 µg/mL

Fill blank: measured MIC Staphylococcus aureus (GC 4545) of the molecule CC(c1ccccc1)C1NC(=O)CNC(=O)C(CO)NC(=O)C(C(O)C2CN(Cc3ccc(C(F)(F)F)cc3)C(=N)N2C2OC(CO)C(O)C(O)C2O)NC(=O)C(C(O)C2CNC(=N)N2)NC(=O)C(Cc2ccc(OC3OC(CO)C(OC4OC5COC6(OC5C(O)C4O)C4CC5CC(C4)CC6C5)C(O)C3O)cc2)NC1=O (centres unmarked) is ____.
16 µg/mL

Fill blank: measured MIC Staphylococcus aureus (GC 4545) of the molecule N=C1NCC(C(O)C2NC(=O)C(Cc3ccc(OC4OC(CO)C(OC5OC6COC(c7ccccc7)OC6C(O)C5O)C(O)C4O)cc3)NC(=O)C(CC3CCCCC3)NC(=O)CNC(=O)C(CO)NC(=O)C(C(O)C3CNC(=N)N3C3OC(CO)C(O)C(O)C3O)NC2=O)N1 (centres unmarked) is ____.
1 µg/mL

Fill blank: measured MIC Staphylococcus aureus (GC 4545) of the molecule CC(c1ccccc1)C1NC(=O)CNC(=O)C(CO)NC(=O)C(C(O)C2CNC(=N)N2C2OC(CO)C(O)C(O)C2O)NC(=O)C(C(O)C2CNC(=N)N2)NC(=O)C(Cc2ccc(O)c(NC=O)c2)NC1=O (centres unmarked) is ____.
>128 µg/mL

Fill blank: measured MIC Staphylococcus aureus (GC 4545) of the molecule CC(c1ccccc1)C1NC(=O)CNC(=O)C(CO)NC(=O)C(C(O)C2CNC(=N)N2C2OC(CO)C(O)C(O)C2O)NC(=O)C(C(O)C2CNC(=N)N2)NC(=O)C(Cc2ccc3oc(-c4cccc(F)c4)nc3c2)NC1=O (centres unmarked) is ____.
8 µg/mL
